Consider the following compounds; for each one, report its inhibition.
Biological target: Solute carrier family 2, facilitated glucose transporter member 1 (Homo sapiens)
Test: ST_JUDE_LEISH: Cytotoxicity at 2uM final concentration against transgenic Leishmania Mexicana promastigotes LmGLUT1 that are glucose transport deficient and complemented with the human glucose transporter GLUT1. Activity is measured by DNA content using SYBR green in vitro
Type: functional
Give bare numbers, in %.

# count of solved cases: 2
[[record]]
compound = "COC(=O)c1ccc(NC(=O)Nc2cccc(CCNCc3ccccc3)c2)cc1"
target_system = "Solute carrier family 2, facilitated glucose transporter member 1 (Homo sapiens)"
measured_number = -0.06

[[record]]
compound = "O=C(/C=C/c1ccc(C(F)(F)F)cc1)N1CCC(CCN2CCC(c3c[nH]c4ccccc34)CC2)CC1"
target_system = "Solute carrier family 2, facilitated glucose transporter member 1 (Homo sapiens)"
measured_number = 16.8


Provide each entry's inhibition from the list below.
1. COc1cccc(C(=O)Nc2sc3c(c2C(N)=O)CCCC3)c1OC
2. CC(=O)Nc1cccc(NC(=O)CSc2ccc(-c3nc4ccccc4[nH]3)cn2)c1
3. FC(F)(F)c1ccc2[nH]c(-c3ccc(-c4ccc(CN5CCN(c6ccncc6)CC5)cc4)cc3)nc2c1
4. O=C(Cn1c(CCc2cccc(F)c2F)cc(=O)c2ccccc21)N(CCN1CCCCC1)Cc1ccc(-c2ccc(C(F)(F)F)cc2)cc1
5. O=C(NC1CCCCN(Cc2ccccc2O)C1)c1cc(F)cc(F)c1 (centres undefined)

a:
1: 0.25; 2: 0.84; 3: 77.4; 4: 6.77; 5: 4.28

Go through the list and state inhibition for each entry.
1. FC(F)(F)c1ccc2[nH]c(-c3cccc(-c4ccc(CNCC5CCCO5)cc4)c3)nc2c1 (centres undefined)
2. O=C(Nc1cccc(CN2CCCN(CC3CC3)CC2)c1)c1ccc(Cl)c(Cl)c1
3. COc1c(C2CCN(CCCCNC(=O)c3cc(-c4ccc(Cl)cc4)sc3C)CC2)ccc2c1CCCC2
4. COc1cc(C)c(NC(=O)c2cccc3c(=O)c(C)c(-c4ccccc4)oc23)cc1OC
5. CC(C)(C)C1CC(=O)CC2C(=O)N(C3CCCCC3)C(=O)C21 (centres undefined)
6. CS(=O)(=O)Nc1cccc(-c2cnc3[nH]cc(-c4cc(N)cc(C(=O)O)c4)c3c2)c1

a:
1: 11.3; 2: 10.8; 3: 0.21; 4: 6.49; 5: 4.51; 6: 0.76
